test system: rabbits; test: In vivo neuromuscular block and cardiovascular side effects, rabbit (Example 8, Table 7); conditions: spontaneous recovery, 25-75% neuromuscular response
PROPERTY NAME: RI (recovery index) (min)

[[record]]
molecule = "CC(=O)Oc1ccc(C[N+]2(C)C3CCCC2CC(OC(=O)CCCCC(=O)OC2CC4CCCC(C2)[N+]4(C)Cc2ccc(OC(C)=O)c(OC(C)=O)c2)C3)cc1OC(C)=O.[Br-].[Br-] (stereo not shown)"
property_name = "RI (recovery index)"
observed = 0.5

[[record]]
molecule = "CCC(=O)Oc1ccc(C[N+]2(C)C3CCCC2CC(OC(=O)CCCCC(=O)OC2CC4CCCC(C2)[N+]4(C)Cc2ccc(OC(=O)CC)c(OC(=O)CC)c2)C3)cc1OC(=O)CC.[Br-].[Br-] (stereo not shown)"
property_name = "RI (recovery index)"
observed = 0.5

[[record]]
molecule = "COc1cc(C[N+]2(C)[C@@H]3CC[C@H]2C[C@@H](OC(=O)C2CCCC(C(=O)O[C@H]4C[C@H]5CC[C@@H](C4)[N+]5(C)Cc4ccc(OC(C)=O)c(OC)c4)C2)C3)ccc1OC(C)=O.[Br-].[Br-] (stereo partly shown)"
property_name = "RI (recovery index)"
observed = 0.65

[[record]]
molecule = "CC(=O)Oc1ccc(C[N+]2(C)C3CCCC2CC(OC(=O)CCCCCCC(=O)OC2CC4CCCC(C2)[N+]4(C)Cc2ccc(OC(C)=O)c(OC(C)=O)c2)C3)cc1OC(C)=O.[Br-].[Br-] (stereo not shown)"
property_name = "RI (recovery index)"
observed = 0.55

[[record]]
molecule = "CCC(=O)Oc1ccc(C[N+]2(C)[C@@H]3CC[C@H]2C[C@@H](OC(=O)CCCC(=O)O[C@H]2C[C@H]4CC[C@@H](C2)[N+]4(C)Cc2ccc(OC(=O)CC)c(OC(=O)CC)c2)C3)cc1OC(=O)CC.[Br-].[Br-] (stereo partly shown)"
property_name = "RI (recovery index)"
observed = 0.8

[[record]]
molecule = "CC(=O)Oc1ccc(C[N+]2(C)[C@@H]3CC[C@H]2C[C@@H](OC(=O)C2CCC2C(=O)O[C@H]2C[C@H]4CC[C@@H](C2)[N+]4(C)Cc2ccc(OC(C)=O)c(OC(C)=O)c2)C3)cc1OC(C)=O.[Br-].[Br-] (stereo partly shown)"
property_name = "RI (recovery index)"
observed = 0.6

[[record]]
molecule = "CCC(=O)Oc1ccc(C[N+]2(C)C3CCCC2CC(OC(=O)CCCCCC(=O)OC2CC4CCCC(C2)[N+]4(C)Cc2ccc(OC(=O)CC)c(OC(=O)CC)c2)C3)cc1OC(=O)CC.[Br-].[Br-] (stereo not shown)"
property_name = "RI (recovery index)"
observed = 0.4

[[record]]
molecule = "CC[N+]1(C)[C@@H]2CC[C@H]1C[C@@H](OC(=O)CCCCC(=O)O[C@H]1C[C@H]3CC[C@@H](C1)[N+]3(C)CC)C2.[I-].[I-] (stereo partly shown) [reference compound]"
property_name = "RI (recovery index)"
observed = 9

[[record]]
molecule = "CCC(=O)Oc1ccc(C[N+]2(C)[C@@H]3CC[C@H]2C[C@@H](OC(=O)CCCCC(=O)O[C@H]2C[C@H]4CC[C@@H](C2)[N+]4(C)Cc2ccc(OC(=O)CC)c(OC(=O)CC)c2)C3)cc1OC(=O)CC.[Br-].[Br-] (stereo partly shown)"
property_name = "RI (recovery index)"
observed = 0.65

[[record]]
molecule = "CC(=O)Oc1ccc(C[N+]2(C)C3CCC2CC(OC(=O)C2C4C=CC(C4)C2C(=O)OC2CC4CCC(C2)[N+]4(C)Cc2ccc(OC(C)=O)c(OC(C)=O)c2)C3)cc1OC(C)=O.[Br-].[Br-] (stereo not drawn) [bis[N-(3,4-diacetoxybenzyl)tropanium-3β-yl]trans-3,6-endomet]"
property_name = "RI (recovery index)"
observed = 0.75

[[record]]
molecule = "COc1cc2c(cc1OC)[C@@H](Cc1cc(OC)c(OC)c(OC)c1)[N+](C)(CCCOC(=O)CC/C=C/CCC(=O)OCCC[N+]1(C)CCc3cc(OC)c(OC)cc3[C@H]1Cc1cc(OC)c(OC)c(OC)c1)CC2 (stereo partly shown) [Mivacurium, reference compound]"
property_name = "RI (recovery index)"
observed = 3.9

[[record]]
molecule = "COc1cc(C[N+]2(C)C3CCC2CC(OC(=O)C2C4C=CC(C4)C2C(=O)OC2CC4CCC(C2)[N+]4(C)Cc2cc(OC)c(OC(C)=O)c(OC)c2)C3)cc(OC)c1OC(C)=O.[Br-].[Br-] (stereo not shown)"
property_name = "RI (recovery index)"
observed = 0.45

[[record]]
molecule = "CC(=O)Oc1ccc(C[N+]2(C)[C@@H]3CC[C@H]2C[C@@H](OC(=O)CCCC(=O)O[C@H]2C[C@H]4CC[C@@H](C2)[N+]4(C)Cc2ccc(OC(C)=O)c(OC(C)=O)c2)C3)cc1OC(C)=O.[Br-].[Br-] (stereo partly shown)"
property_name = "RI (recovery index)"
observed = 0.7

[[record]]
molecule = "COc1cc(C[N+]2(C)C3CCC2CC(OC(=O)C2C4C=CC(C4)C2C(=O)OC2CC4CCC(C2)[N+]4(C)Cc2ccc(OC(C)=O)c(OC)c2)C3)ccc1OC(C)=O.[Br-].[Br-] (stereo not shown)"
property_name = "RI (recovery index)"
observed = 0.65

[[record]]
molecule = "CC(=O)Oc1ccc(C[N+]2(C)C3CCCC2CC(OC(=O)CCCC(=O)OC2CC4CCCC(C2)[N+]4(C)Cc2ccc(OC(C)=O)c(OC(C)=O)c2)C3)cc1OC(C)=O.[Br-].[Br-] (stereo not shown)"
property_name = "RI (recovery index)"
observed = 0.55

[[record]]
molecule = "COc1cc(C[N+]2(C)[C@@H]3CC[C@H]2C[C@@H](OC(=O)CCCCCCCCCC(=O)O[C@H]2C[C@H]4CC[C@@H](C2)[N+]4(C)Cc2cc(OC)c(OC(C)=O)c(OC)c2)C3)cc(OC)c1OC(C)=O.[Br-].[Br-] (stereo partly shown)"
property_name = "RI (recovery index)"
observed = 0.35

[[record]]
molecule = "CC(=O)Oc1ccc(C[N+]2(C)C3CCCC2CC(OC(=O)C2CCC2C(=O)OC2CC4CCCC(C2)[N+]4(C)Cc2ccc(OC(C)=O)c(OC(C)=O)c2)C3)cc1OC(C)=O.[Br-].[Br-] (stereo not shown)"
property_name = "RI (recovery index)"
observed = 0.6

[[record]]
molecule = "COc1cc(C[N+]23CCC(CC2)C(OC(=O)[C@@H]2[C@@H](C(=O)OC4C[N+]5(Cc6ccc(OC(C)=O)c(OC)c6)CCC4CC5)[C@H]4C=C[C@@H]2C4)C3)ccc1OC(C)=O.[Br-].[Br-] (relative stereo)"
property_name = "RI (recovery index)"
observed = 4.5

[[record]]
molecule = "CCC(=O)Oc1ccc(C[N+]2(C)[C@@H]3CC[C@H]2C[C@@H](OC(=O)C2CCC2C(=O)O[C@H]2C[C@H]4CC[C@@H](C2)[N+]4(C)Cc2ccc(OC(=O)CC)c(OC(=O)CC)c2)C3)cc1OC(=O)CC.[Br-].[Br-] (stereo partly shown)"
property_name = "RI (recovery index)"
observed = 0.5


---

system: anesthetized rats (evoked responses of anterior tibial muscle); assay: In vivo neuromuscular block and cardiovascular side effects, anesthetized rat (Example 8, Table 3); conditions: rat; at 80-85% neuromuscular blocking dose
PROPERTY NAME: ΔH (change in heart rate) (%)

[[record]]
molecule = "COc1cc(C[N+]2(C)[C@@H]3CC[C@H]2C[C@@H](OC(=O)C2CCC2C(=O)O[C@H]2C[C@H]4CC[C@@H](C2)[N+]4(C)Cc2cc(OC)c(OC(C)=O)c(OC)c2)C3)cc(OC)c1OC(C)=O.[Br-].[Br-] (stereo partly shown)"
unit_abbreviation = "%"
observed = 0

[[record]]
molecule = "CC(=O)Oc1ccc(C[N+]2(C)[C@@H]3CC[C@H]2C[C@@H](OC(=O)CCCC(=O)O[C@H]2C[C@H]4CC[C@@H](C2)[N+]4(C)Cc2ccc(OC(C)=O)c(OC(C)=O)c2)C3)cc1OC(C)=O.[Br-].[Br-] (stereo partly shown)"
unit_abbreviation = "%"
observed = 0

[[record]]
molecule = "COc1cc(C[N+]2(C)C3CCC2CC(OC(=O)C2C4C=CC(C4)C2C(=O)OC2CC4CCC(C2)[N+]4(C)Cc2cc(OC)c(OC(C)=O)c(OC)c2)C3)cc(OC)c1OC(C)=O.[Br-].[Br-] (stereo not shown)"
unit_abbreviation = "%"
observed = 0

[[record]]
molecule = "COc1cc(C[N+]2(C)[C@@H]3CC[C@H]2C[C@@H](OC(=O)CCCCCCCCCC(=O)O[C@H]2C[C@H]4CC[C@@H](C2)[N+]4(C)Cc2cc(OC)c(OC)c(OC)c2)C3)cc(OC)c1OC.[Br-].[Br-] (stereo partly shown)"
unit_abbreviation = "%"
observed = 0

[[record]]
molecule = "CCC(=O)Oc1ccc(C[N+]2(C)[C@@H]3CC[C@H]2C[C@@H](OC(=O)CCCC(=O)O[C@H]2C[C@H]4CC[C@@H](C2)[N+]4(C)Cc2ccc(OC(=O)CC)c(OC(=O)CC)c2)C3)cc1OC(=O)CC.[Br-].[Br-] (stereo partly shown)"
unit_abbreviation = "%"
observed = 0

[[record]]
molecule = "COc1cc(C[N+]2(C)C3CCC2CC(OC(=O)C2C4C=CC(C4)C2C(=O)OC2CC4CCC(C2)[N+]4(C)Cc2ccc(OC(C)=O)c(OC)c2)C3)ccc1OC(C)=O.[Br-].[Br-] (stereo not shown)"
unit_abbreviation = "%"
observed = 0

[[record]]
molecule = "C[N+]1(Cc2ccccc2)[C@@H]2CC[C@H]1C[C@@H](OC(=O)CCCC(=O)O[C@H]1C[C@H]3CC[C@@H](C1)[N+]3(C)Cc1ccccc1)C2.[Br-].[Br-] (stereo partly shown) [reference compound]"
unit_abbreviation = "%"
observed = 0

[[record]]
molecule = "CCC(=O)Oc1ccc(C[N+]2(C)[C@@H]3CC[C@H]2C[C@@H](OC(=O)C2CCC2C(=O)O[C@H]2C[C@H]4CC[C@@H](C2)[N+]4(C)Cc2ccc(OC(=O)CC)c(OC(=O)CC)c2)C3)cc1OC(=O)CC.[Br-].[Br-] (stereo partly shown)"
unit_abbreviation = "%"
observed = 0

[[record]]
molecule = "CC(=O)Oc1ccc(C[N+]2(C)[C@@H]3CC[C@H]2C[C@@H](OC(=O)C2CCCC(C(=O)O[C@H]4C[C@H]5CC[C@@H](C4)[N+]5(C)Cc4ccc(OC(C)=O)c(OC(C)=O)c4)C2)C3)cc1OC(C)=O.[Br-].[Br-] (stereo partly shown)"
unit_abbreviation = "%"
observed = 0

[[record]]
molecule = "C[N+]1(C)[C@@H]2CC[C@H]1C[C@@H](OC(=O)CCCC(=O)O[C@H]1C[C@H]3CC[C@@H](C1)[N+]3(C)C)C2.[I-].[I-] [reference compound]"
unit_abbreviation = "%"
observed = 0

